- test-target: T1, Cbx7 chromodomain, Cbx7-(8–62) (human, UniProt O95931 8-62)
- T1 sequence: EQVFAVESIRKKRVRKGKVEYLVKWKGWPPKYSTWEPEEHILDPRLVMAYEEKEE
Square brackets hold non-standard residues; d marks the D form. Ends that are not written are not given here. Lys(Me3) = C[N+](C)(C)CCCC[C@H](N)C(=O)O
The binders listed here are annotated with their pKd.
// pKd is dimensionless: -log10 of concentration (M)

RQVAV[Lys(Me3)]STR [SETDB1 peptide RQVAVKme3STR] = 4.37

Task: Specify reported pKd for the binder shown: RGFAL[Lys(Me3)]STHG [SETDB1 peptide 1165-RGFALKme3STHG]
Result: 5.30

Task: Specify reported pKd for the binder shown: HGIAI[Lys(Me3)]STN [SETDB1 peptide HGIAIKme3STN]
Result: 5.30
